Source of measurements: patent US11925624B2

# assayInfo: Phase 1 single ascending dose (Part A) pharmacokinetics, fasted state
# Format: in vivo, human
# appliedConditions: human, plasma, oral, 200 mg single dose (A3), read-out: Vz/F(norm)
measuredQuantity: Vd/F (L/kg)
Numeric only. Scale: L/kg

### Prompt Given Cn1cc(-c2cn(-c3ccc(OC(F)(F)F)cc3)c(=O)c3ncn(C)c23)cn1 [Compound I] , respond with its Vd/F.
### Response 1.37

###

# assayInfo: Phase 1 single ascending dose (Part A) pharmacokinetics, fasted state
# Type: in vivo, human
# appliedConditions: human, plasma, oral, 75 mg single dose (A2)
measuredQuantity: AUC(0-t) (µg·h/mL)
Numeric only. Scale: µg·h/mL

### Prompt Given Cn1cc(-c2cn(-c3ccc(OC(F)(F)F)cc3)c(=O)c3ncn(C)c23)cn1 , respond with its AUC(0-t).
### Response 13
